Assay: Inhibitory activity against herpes simplex virus type 1 (HSV-1) thymidine kinase (TK) VMW 1837 strain
Measured endpoint: EC50 (µM)
Report only the number, with the unit µM understood.

Use these answered entries as a reference point.
compound=Nc1nc(Cl)c2ncn(CCOCP(=O)(O)O)c2n1 measured_endpoint=EC50 unit_descriptor=µM recorded_value=0.747
compound=CC(C)OP(=O)(O)COCCn1cnc2c(O)nc(N)nc21 measured_endpoint=EC50 unit_descriptor=µM recorded_value=17.2

Measured EC50, Nc1cc2c(ncn2CCOCP(=O)(O)O)c(O)n1 : 6.93

Measured EC50, CC(C)OP(=O)(COCCn1cnc2c(N)nc(N)nc21)OC(C)C : 214
